Method notes: antagonists of CRF-BP/CRF-R2 complex, primary screen, cell-based, HEK293, calcium dye fluorescence, uHTS (AID 588475)
Run parameters: CRF-induced calcium fluorescence, at 11.8 µM, hits give high values
Screen size: about 350,000 compounds; about 2,100 (0.6%) were called active. The sample as a whole holds a higher share of actives than the screen did.
Readout name: inhibition (%)
Output spec: scalar in %, unitless text.

q: Given COc1ccc(C2=NOC(Cn3nc(C(=O)NCc4ccc5c(c4)OCO5)cc3-c3ccccc3)C2)cc1 (centres undefined) , respond with its inhibition.
a: 1.87

q: Given `CCOc1ccc(NC(=O)CCC(=O)NNC(=O)NC2CCCCC2)cc1` , respond with its inhibition.
a: 9.93

q: Given Cc1ccccc1-c1cc(C(=O)NCc2cccs2)n(CC2CC(c3cccnc3)=NO2)n1 (centres undefined) , respond with its inhibition.
a: 9.77

q: Given `COCCN(C(=S)Nc1ccccc1OC)C1CCN(C(C)C)CC1` , respond with its inhibition.
a: -0.52

q: Given `COC(=O)c1ccc(COc2ccc(C#N)cc2)o1` , respond with its inhibition.
a: 10.2

q: Given `O=C(N/N=C/c1cc(Br)c(O)c([N+](=O)[O-])c1)C(O)(c1ccccc1)c1ccccc1` , respond with its inhibition.
a: 4.64

q: Given COc1cccc(CNC(=O)CCC2CCCN(C(=O)c3ccoc3C)C2)c1 (centres undefined) , respond with its inhibition.
a: -2.45

q: Given `CCOc1ccc(NC(=S)NC(=O)/C=C/c2ccc(OC)cc2)c([N+](=O)[O-])c1` , respond with its inhibition.
a: -8

q: Given `Cn1c(SCC(=O)N2CCCCC2)nc2c(c1=O)SCC2` , respond with its inhibition.
a: -10.6

* * *

Kindly state inhibition for each of the entries shown.
Method notes: antagonists of CRF-BP/CRF-R2 complex, primary screen, cell-based, HEK293, calcium dye fluorescence, uHTS (AID 588475)
Run parameters: CRF-induced calcium fluorescence, at 11.8 µM, hits give high values
Among all 350,000 compounds or so, about 2,100 (0.6%) were called active. This excerpt belongs to a sample that is enriched for actives.
Output spec: scalar in %, unitless text.

q: Given COc1ccc(CC(=O)OC(C)C(=O)Nc2ccc(S(N)(=O)=O)cc2)cc1 (configuration not stated) , respond with its inhibition.
a: -1.19

q: Given `Cc1nc2c(-c3ccccc3)c(C)[nH]n2c(=O)c1Cl` , respond with its inhibition.
a: 42.5

q: Given `O=C(N[C@@H]1C/C=C\C[C@@H](CC(=O)N(CCO)Cc2ccccc2)C(=O)N[C@H](Cc2ccccc2)COC1=O)OCC1c2ccccc2-c2ccccc21` , respond with its inhibition.
a: 1.02

q: Given `COc1ccccc1C(=O)N1CCN=C1SCc1cccnc1` , respond with its inhibition.
a: 11.4

q: Given O=C1c2cccc3c([N+](=O)[O-])ccc(c23)C(=O)N1CC1CCCO1 (configuration not stated) , respond with its inhibition.
a: 87.2

q: Given `CN1CN(C)c2ccc([N+](=O)[O-])c3cccc1c23` , respond with its inhibition.
a: 4.39

q: Given Cc1ccc2nc(N3C(=O)C(O)=C(C(=O)c4ccco4)C3c3cccc(O)c3)sc2c1 (configuration not stated) , respond with its inhibition.
a: 51.9

* * *

Method notes: antagonists of CRF-BP/CRF-R2 complex, primary screen, cell-based, HEK293, calcium dye fluorescence, uHTS (AID 588475)
Run parameters: CRF-induced calcium fluorescence, at 11.8 µM
The campaign covered roughly 350,000 compounds. About 2,100 (0.6%) were called active.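 The calls were made as follows: active = inhibition of the ligand-induced calcium signal above about 50% at the single tested concentration (limit read from the data); inactive = the rest.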 Many of the other results were omitted from the sample, so actives are more common in it than they were.
Entry note: the call must match one of active, inactive

q: For this compound, state the assay outcome: `O=[N+]([O-])c1ccc(NS(=O)(=O)c2ccccc2)c(Cl)c1`
a: active

q: For this compound, state the assay outcome: `CN1CCN(C2=NCCO2)CC1`
a: inactive

q: For this compound, state the assay outcome: `O=C(/C(=N\O)n1cncn1)c1ccc(Br)cc1Br`
a: inactive

q: For this compound, state the assay outcome: `CC(C)(C)NC(=O)CN1CCC(NC(=O)C23CC4CC(CC(C4)C2)C3)CC1`
a: inactive

q: For this compound, state the assay outcome: `O=C(c1ccc(-n2cnnn2)cc1)N1CCN(C(c2ccccc2)c2ccccc2)CC1`
a: inactive

* * *

Method notes: antagonists of CRF-BP/CRF-R2 complex, primary screen, cell-based, HEK293, calcium dye fluorescence, uHTS (AID 588475)
Run parameters: CRF-induced calcium fluorescence, at 11.8 µM, hits give high values
Among all 350,000 compounds or so, about 2,100 (0.6%) were called active. Only a selection was taken, and actives are over-represented in it overall.
Readout name: inhibition (%)
Output spec: scalar in %, unitless text.

q: Given `COCCN1CCn2c(nc3cc(NS(C)(=O)=O)ccc32)C1` , respond with its inhibition.
a: -7.04

q: Given `COc1ccc(S(=O)(=O)N2CCOCC2)cc1NC(=O)CSc1cc(C)ccc1C` , respond with its inhibition.
a: 1.57

q: Given `COc1ccc(S(=O)(=O)N2CCOCC2)cc1NC(=O)COc1ccccc1` , respond with its inhibition.
a: 12.8

q: Given `O=C(Cc1cccs1)N/N=C/c1ccc(OCc2ccccc2)cc1` , respond with its inhibition.
a: -49.7

q: Given Cc1cc2c(cc1C)NC(c1ccccn1)C1=C(CC(C)(C)CC1=O)N2 (stereo not given) , respond with its inhibition.
a: 7.43
